The measured values listed here are drawn from ChEMBL document CHEMBL4390694.

System: Mycobacterium tuberculosis
Assay: Antimycobacterial activity against multidrug-resistant Mycobacterium tuberculosis assessed as complete inhibition of bacterial growth incubated for 7 days by rapid direct susceptibility test
Format: functional
Settings: 168 h
PROPERTY NAME: MIC (µg/mL)
# number only, unit µg/mL dropped from output

Please fill in: MIC reported for CCOC(=O)c1c(-c2ccc(OC)cc2)oc2ccc(OCCCCN3C(=O)C(=O)c4cc(OC)ccc43)cc12 = 4

Please fill in: MIC reported for CCOC(=O)c1c(-c2ccc(OC)cc2)oc2ccc(OCCCCCN3C(=O)C(=O)c4cc(F)ccc43)cc12 = 0.25

Please fill in: MIC reported for CCOC(=O)c1c(-c2ccc(F)cc2)oc2ccc(OCCCCCN3C(=O)C(=O)c4cc(OC)ccc43)cc12 = 1

Please fill in: MIC reported for CCOC(=O)c1c(-c2ccccc2)oc2ccc(OCCCN3C(=O)C(=O)c4cc(OC)ccc43)cc12 = 0.25

Please fill in: MIC reported for CCOC(=O)c1c(-c2ccc(F)cc2)oc2ccc(OCCCCCCN3C(=O)C(=O)c4cc(F)ccc43)cc12 = 0.25

Please fill in: MIC reported for CCOC(=O)c1c(-c2ccc(OC)cc2)oc2ccc(OCCCCCCN3C(=O)C(=O)c4ccccc43)cc12 = 0.125

Please fill in: MIC reported for CCOC(=O)c1c(-c2ccc(F)cc2)oc2ccc(OCCCN3C(=O)C(=O)c4ccccc43)cc12 = 1

====

System: Mycobacterium tuberculosis
Test: Antimycobacterial activity against multidrug-resistant Mycobacterium tuberculosis assessed as complete inhibition of bacterial growth incubated for 7 days by rapid direct susceptibility test
Assay type: functional
Details: 168 h
PROPERTY NAME: log10 of MIC (log10 of the value in µg/mL)
Give log10 of MIC, with MIC taken in µg/mL.

QUERY SMILES: CCOC(=O)c1c(-c2ccc(OC)cc2)oc2ccc(OCCCN3C(=O)C(=O)c4cc(F)ccc43)cc12
log10 of MIC: -0.60

QUERY SMILES: CCOC(=O)c1c(-c2ccc(F)cc2)oc2ccc(OCCCN3C(=O)C(=O)c4cc(OC)ccc43)cc12
log10 of MIC: 0.30

QUERY SMILES: CCOC(=O)c1c(-c2ccc(OC)cc2)oc2ccc(OCCCCN3C(=O)C(=O)c4ccccc43)cc12
log10 of MIC: 0.00

QUERY SMILES: CCOC(=O)c1c(-c2ccc(F)cc2)oc2ccc(OCCCN3C(=O)C(=O)c4cc(F)ccc43)cc12
log10 of MIC: 0.00

QUERY SMILES: CCOC(=O)c1c(-c2ccc(OC)cc2)oc2ccc(OCCCCCCN3C(=O)C(=O)c4cc(F)ccc43)cc12
log10 of MIC: -0.90

QUERY SMILES: CO[C@H]1/C=C/O[C@@]2(C)Oc3c(C)c(O)c4c(O)c(c(/C=N/N5CCN(C)CC5)c(O)c4c3C2=O)NC(=O)/C(C)=C\C=C\[C@H](C)[C@H](O)[C@@H](C)[C@@H](O)[C@@H](C)[C@H](OC(C)=O)[C@@H]1C
log10 of MIC: 1.81

--- query ---
Please fill in: log10 of MIC reported for CCOC(=O)c1c(-c2ccc(OC)cc2)oc2ccc(OCCCN3C(=O)C(=O)c4ccccc43)cc12 = 0.00
